# experimental-target: T1, human B7-2/CD86 protein, with His tag (human, UniProt P42081 26-247, limits assumed)
# T1 construct: Bought protein
# T1 sequence (looked up): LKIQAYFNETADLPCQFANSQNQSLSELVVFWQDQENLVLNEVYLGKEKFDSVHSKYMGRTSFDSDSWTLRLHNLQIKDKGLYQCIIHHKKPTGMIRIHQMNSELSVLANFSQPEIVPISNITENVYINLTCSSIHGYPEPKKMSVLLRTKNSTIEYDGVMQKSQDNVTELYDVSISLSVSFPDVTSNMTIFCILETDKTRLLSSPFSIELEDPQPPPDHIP
# assay-comment: SPR (Biacore T200), antibody captured on Protein A chip, response at 200 nM antigen
measure-name: Response (RU)

6B5 (antibody, human IgG1, kappa, V domains shown, also called 6B5-WT; Ab6B5) VH: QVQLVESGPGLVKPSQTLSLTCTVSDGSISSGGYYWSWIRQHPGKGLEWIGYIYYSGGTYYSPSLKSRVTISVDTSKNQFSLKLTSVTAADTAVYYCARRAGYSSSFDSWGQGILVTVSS VL: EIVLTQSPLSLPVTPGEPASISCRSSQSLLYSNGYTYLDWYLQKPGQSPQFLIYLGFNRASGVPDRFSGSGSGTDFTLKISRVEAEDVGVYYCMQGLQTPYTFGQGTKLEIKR : 0.3
10F5 (antibody, human IgG1, kappa, V domains shown, also called Ab10F5) VH: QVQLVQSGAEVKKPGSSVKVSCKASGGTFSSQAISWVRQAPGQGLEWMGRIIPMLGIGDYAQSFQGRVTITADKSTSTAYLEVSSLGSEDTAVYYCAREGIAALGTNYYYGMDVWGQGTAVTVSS VL: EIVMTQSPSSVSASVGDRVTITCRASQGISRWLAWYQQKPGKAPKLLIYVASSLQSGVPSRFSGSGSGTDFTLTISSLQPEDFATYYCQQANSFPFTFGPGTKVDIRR : 0.5
10D7 (antibody, human IgG1, kappa, V domains shown, also called 10D7-WT; Ab10D7) VH: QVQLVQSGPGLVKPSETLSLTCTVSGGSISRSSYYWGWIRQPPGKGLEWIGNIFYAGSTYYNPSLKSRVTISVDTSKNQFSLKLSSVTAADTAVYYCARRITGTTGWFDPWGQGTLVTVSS VL: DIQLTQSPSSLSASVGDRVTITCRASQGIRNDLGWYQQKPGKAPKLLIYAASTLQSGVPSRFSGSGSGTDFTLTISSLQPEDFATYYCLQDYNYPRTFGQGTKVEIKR : -0.2
Enoblituzumab (antibody, human IgG1, kappa, V domains shown, Humanized anti-B7-H3 antibody of MacroGenics with optimised Fc, used as the positive control; also called AbEno; enoblituzumab-IgG1-Mut) VH: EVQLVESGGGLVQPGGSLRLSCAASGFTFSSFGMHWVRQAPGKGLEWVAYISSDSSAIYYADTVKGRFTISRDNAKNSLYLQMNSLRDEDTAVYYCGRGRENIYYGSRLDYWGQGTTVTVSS VL: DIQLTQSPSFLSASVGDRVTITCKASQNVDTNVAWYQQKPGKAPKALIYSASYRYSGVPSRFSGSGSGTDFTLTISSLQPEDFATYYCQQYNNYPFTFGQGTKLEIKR : -1.5
